- Tested on: Proteus mirabilis
- Protocol text: MIC against Gram-negative bacteria: Proteus mirabilis
- Type: cell-based
- Test parameters: Proteus mirabilis; 5×10^5 CFU/mL; 10 h cultivation at 37° C.
MIC against P. mirabilis values by entry
The response must be a number in µg/mL with no trailing unit.

| Substance | Scale unit | MIC against P. mirabilis |
| --- | --- | --- |
| PRT1449 (ACAPGHFGADCRLQCQCQNGGTCDRFSGCVCPSGWHGVHCE; listed as Homo sapiens) | µg/mL | 50 |
| PRT1389 (PEEQCIDPTCFGHGTCIMGVCICVPGYKGEICE; listed as Homo sapiens) | µg/mL | 12.5 |
| PRT1410 (IEGCPGLCNSNGRCTLDQNGWHCVCQPGWRGAGCD; listed as Homo sapiens) | µg/mL | 50 |

Next, consider the following substance.
Briefly, MIC against P. mirabilis measured for PRT1413 (PTNQCIDVACSNHGTCITGTCICNPGYKGESCE; listed as Homo sapiens) : 50

* * *

# Lookup of reported MIC against P. mirabilis keyed by entry
- Tested on: Proteus mirabilis
- Protocol text: MIC against Gram-negative bacteria: Proteus mirabilis
- Type: cell-based
- Test parameters: Proteus mirabilis; 96-well plate, 5×10^5 CFU/mL, 37° C., 10 h
Quote the value and follow it with the unit of measurement.

| Substance | Metric | Result |
| --- | --- | --- |
| PRT1334 (PINPCLRKICHPHAHCTYLGPNRHSCTCQEGYRGDGQVCL; listed as Homo sapiens) | MIC against P. mirabilis | 100 µg/mL |
| PRT1228 (CPPCPKYASCHNSTHCTCEDGFRARSGRTYFHDSSEKCE; listed as Homo sapiens) | MIC against P. mirabilis | 12.5 µg/mL |

Query PRT1224 (PPGDCASHPCQNGGSCEPGLHSGFTCSCPDSHTGRTCE; listed as Homo sapiens) yields MIC against P. mirabilis of 50 µg/mL

Per the records, this substance ( PRT1223 (LEGACTRSPCQHGGTCMDYWSWQQCHCKEGLTGKYCE; listed as Homo sapiens) ) has MIC against P. mirabilis equal to 12.5 µg/mL

Consider PRT1283 (NTDDCVDHACANGGVCVDGVGNYTCQCPLQYEGKACE; listed as Homo sapiens) . Its measured MIC against P. mirabilis is 25 µg/mL

Looking up PRT1269 (DIDECQTRNGGCDHFCKNIVGSFDCGCKKGFKLLTDEKSCQ; listed as Homo sapiens) , I see its MIC against P. mirabilis listed as 12.5 µg/mL

Lab book: MIC against P. mirabilis of PRT1313 (VADLCQDGHGGCSEHANCSQVGTMVTCTCLPDYEGDGWSCR; listed as Homo sapiens) noted as 50 µg/mL

Lookup result for PRT1267 (CNHGNGGCQHSCDDTADGPECSCHPQYKMHTDGRSC; listed as Homo sapiens) ; measured MIC against P. mirabilis: 50 µg/mL

// PRT1213 (HSDYCSQNTCLNGGKCSWTHGAGYVCKCPPQFSGKHCE; listed as Homo sapiens) : MIC against P. mirabilis value = 25 µg/mL

# MIC against P. mirabilis of PRT1305 (SANACSAFKCHHGQCHISDQGEPYCLCQPGFSGEHCQ; listed as Homo sapiens) = 25 µg/mL

Reported MIC against P. mirabilis ( PRT1333 (PIPECAALLCPENSRCSPSTEDENKLECKCLPNYRGDGKYCD; listed as Homo sapiens) ) = 12.5 µg/mL

Kindly note the recorded MIC against P. mirabilis for PRT1235 (IGPQCEEMCNGQGSCINGTKCICDPGYSGPTCK; listed as Homo sapiens) , which is 12.5 µg/mL

// MIC against P. mirabilis value for PRT1301 (DNDDCVAHKCRHGAQCVDTINGYTCTCPQGFSGPFCE; listed as Homo sapiens) : 12.5 µg/mL

* * *

- Tested on: E. coli DH5α
- Protocol text: Antibacterial activity: MIC and growth curve against E. coli DH5α in 96-well plate
- Assay type: cell-based
- Test parameters: minimal inhibitory concentration against E. coli DH5α; 96-well plate, 5×10^5 CFU/mL, 37° C., judged after 8 h
Metric: MIC

| Substance | Target of assay | Result |
| --- | --- | --- |
| PRT982 (VLSPCESQPCQHGGQCRPSPGPGGGLTFTCHCAQPFWGPRCE; listed as Homo sapiens) | E. coli DH5α | 50 µg/mL |
| PRT1160 (DTEDCKSASCKNGTTSTHLRGYFFRKCVPGFKGTQCE; listed as Homo sapiens) | E. coli DH5α | 12.5 µg/mL |
| PRT1117 (EVDECASAPCLHGGSCLDGVGSFRCVCAPGYGGTRCQ; listed as Homo sapiens) | E. coli DH5α | 50 µg/mL |
| PRT508 (CECSHLGNNCDPKTGRCICPPNTIGEKCSKCAPNTWGHSITTGCKA; listed as Homo sapiens) | E. coli DH5α | 12.5 µg/mL |

Now consider a different substance.
Entry PRT217 (DIDECTIPPYCHQRCVNTPGSFYCQCSPGFQLAANNYTCV; listed as Homo sapiens) ; assay system E. coli DH5α; MIC recorded at 12.5 µg/mL

* * *

- Test system: Klebsiella pneumonia
- Protocol text: MIC against Gram-negative bacteria: Klebsiella pneumonia
- Assay type: cell-based
- Test parameters: K. pneumonia; 10 h cultivation at 37° C.; 5×10^5 CFU/mL
A collection of substances and their measured MIC (μg/mL) K. pneumonia

| Substance | Target of assay | Result |
| --- | --- | --- |
| PRT881 (AEGPCGERPCENGGICFLLDGHPTCDCSTTGYGGKLCS; listed as Homo sapiens) | Klebsiella pneumonia | 25 µg/mL |
| PRT241 (DTDECQIAGVCQQMCVNYVGGFECYCSEGHELEADGISCS; listed as Homo sapiens) | Klebsiella pneumonia | 12.5 µg/mL |
| PRT793 (YGEACQQICSCQNGADCDSVTGKCTCAPGFKGIDCS; listed as Homo sapiens) | Klebsiella pneumonia | 12.5 µg/mL |
| PRT760 (KLDSCALGDHGCEHSCVSSEDSFVCQCFEGYILREDGKTCR; listed as Homo sapiens) | Klebsiella pneumonia | 50 µg/mL |

Given item PRT779 (VSPCSRGYCDHGGQCQHLPSGPRCSCVSFSIYTAWGEHCE; listed as Homo sapiens) , the value recorded as its MIC (μg/mL) K. pneumonia is 12.5 µg/mL

* * *

Below: a set of entries, each annotated with reported MIC.
- Tested on: Citrobacter diversus
- Protocol text: MIC against Gram-negative bacteria: Citrobacter diversus
- Assay type: cell-based
- Test parameters: C. diversus; 10 h cultivation at 37° C.
The answer is to be given in µg/mL; state only the numeric part.

Field MIC (entry PRT956 (NIDDCAFASCTPGSTCIDRVASFSCMCPEGKAGLLCH; listed as Homo sapiens) ) reads 25

* * *

Property: MIC; scope: individual substances
- Test system: Serratia marcescens
- Protocol text: MIC against Gram-negative bacteria: Serratia marcescens
- Assay type: cell-based
- Test parameters: S. marcescens; 10 h cultivation at 37° C.; 5×10^5 CFU/mL
Provide the reading as a plain figure in µg/mL.

Solved entries (count: 2):
| Substance | Scale unit | Quantitative result |
| --- | --- | --- |
| PRT416 (DVDECAPPAEPCGKGHRCVNSPGSFRCECKTGYYFDGISRMCV; listed as Homo sapiens) | µg/mL | 12.5 |
| PRT437 (DEDECAAGNPCSHSCHNAMGTYYCSCPKGLTIAADGRTCQ; listed as Homo sapiens) | µg/mL | 50 |

substance PRT429 (DVNECEAQRCSQECANIYGSYQCYCRQGYQLAEDGHTCT; listed as Homo sapiens) , MIC observed: 25

Sure, the documented MIC for PRT418 (DINECSSSPCSQECANVYGSYQCYCRRGYQLSDVDGVTCE; listed as Homo sapiens) is 50

Measured MIC of PRT439 (DINECQESSPCHQRCFNAIGSFHCGCEPGYQLKGRKCM; listed as Homo sapiens) : 12.5

Field MIC (entry PRT420 (DIDECVTGIHNCSINETCFNIQGGFRCLAFECPENYRRSAATLQQEKTDTVRCI; listed as Homo sapiens) ) reads 50

Short answer for PRT398 (DDNECHAQPDLCVNGRCVNTAGSFRCDCDEGFQPSPTLTECH; listed as Homo sapiens) : MIC was 100

// MIC lookup, substance = PRT412 (LNDRCRGGGPCKQQCRDTGDEVVCSCFVGYQLLSDGVSCE; listed as Homo sapiens) , result: 12.5

// MIC lookup, substance = PRT428 (DVNECWASPGRLCQHTCENTLGSYRCSCASGFLLAADGKRCE; listed as Homo sapiens) , result: 12.5

// data source = patent US9833497B2
